This collection of values is drawn from patent US7348425B2.

Target: HCV NS5B RdRp genotype 1b (Hepatitis C virus genotype 1b)
Construct: The protein was expressed with an 18 amino acid C-terminal truncation to enhance the solubility; made in house; host or cells: E. coli BL21 (DE3), pET21a
Sequence (Q9WMX2 2420-2992): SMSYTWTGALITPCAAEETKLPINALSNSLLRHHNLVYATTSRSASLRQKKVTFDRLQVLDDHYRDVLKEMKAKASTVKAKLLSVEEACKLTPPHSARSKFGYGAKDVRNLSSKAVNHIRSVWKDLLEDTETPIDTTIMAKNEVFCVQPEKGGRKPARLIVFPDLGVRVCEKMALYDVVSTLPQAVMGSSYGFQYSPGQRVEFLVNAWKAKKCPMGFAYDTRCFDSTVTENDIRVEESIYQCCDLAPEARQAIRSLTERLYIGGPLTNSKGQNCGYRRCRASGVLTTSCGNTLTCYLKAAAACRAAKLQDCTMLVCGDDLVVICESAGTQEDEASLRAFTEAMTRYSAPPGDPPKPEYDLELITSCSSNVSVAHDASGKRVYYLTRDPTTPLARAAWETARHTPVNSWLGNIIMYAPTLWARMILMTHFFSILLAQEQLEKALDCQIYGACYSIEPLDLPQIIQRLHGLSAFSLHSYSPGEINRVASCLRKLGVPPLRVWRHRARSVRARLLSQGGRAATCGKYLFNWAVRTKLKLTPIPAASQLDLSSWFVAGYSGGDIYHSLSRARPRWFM
Assay: Standard HCV NS5B RdRp enzyme assay
Assay type: biochemical
Details: standard method

compound	IC50
O=C(O)c1ccc2c(C3CCCCC3)c3n(c2c1)CC(C(=O)N1CCCC(O)C1)Cc1ccccc1-3 (stereo not drawn) [drawing 121]	0.1 to 1 µM
O=C(O)C1=Cc2ccccc2-c2c(C3CCCCC3)c3ccc(C(=O)O)cc3n2C1	0.1 to 1 µM
O=C(O)c1ccc2c(C3CCCCC3)c3n(c2c1)CC(C(=O)N1CCOCC1)Cc1ccccc1-3 (stereo not drawn) [drawing 114]	> 1 µM
O=C(O)/C=C/c1cccc(-c2nc(C3(NC(=O)c4ccc5c(C6CCCCC6)c6n(c5c4)CC=Cc4ccccc4-6)CCCC3)no2)c1	> 1 µM
O=C(O)c1ccc2c(C3CCCCC3)c3n(c2c1)CC(C(=O)N1CCCCC1)Cc1ccccc1-3 (stereo not drawn) [drawing 118]	0.1 to 1 µM
O=C(O)c1ccc2c(C3CCCCC3)c3n(c2c1)C(O)c1ccccc1-3 (stereo not drawn)	> 1 µM
O=C(O)c1ccc2c(C3CCCCC3)c3n(c2c1)CC(C(=O)N1CCCC(O)C1)Cc1ccccc1-3 (stereo not drawn) [drawing 120]	> 1 µM
CC(C)(C)OC(=O)N1/C=C\CCn2c(c(C3CCCCC3)c3ccc(C(=O)O)cc32)-c2ccccc21	> 1 µM
CN1CCN(C(=O)C2Cc3ccccc3-c3c(C4CCCCC4)c4ccc(C(=O)O)cc4n3C2)CC1 (stereo not drawn)	0.1 to 1 µM
O=C(O)c1ccc(-c2nc(C3(NC(=O)c4ccc5c(C6CCCCC6)c6n(c5c4)CC=Cc4ccccc4-6)CCCC3)no2)cc1	> 1 µM
NC(=O)C1Cc2ccccc2-c2c(C3CCCCC3)c3ccc(C(=O)O)cc3n2C1 (stereo not drawn)	0.1 to 1 µM
O=C(O)c1ccc2c(C3CCCCC3)c3n(c2c1)CC(C(=O)N1CCOCC1)=Cc1ccccc1-3	0.1 to 1 µM
O=C(O)c1ccc2c(C3CCCCC3)c3n(c2c1)CC(C(=O)N1CCC(N2CCCC2)CC1)Cc1ccccc1-3 (stereo not drawn)	0.1 to 1 µM
O=C(O)c1ccc2c(C3CCCCC3)c3n(c2c1)CCCc1ncccc1-3	0.1 to 1 µM
O=C(O)c1ccc2c(C3CCCCC3)c3n(c2c1)Cc1ccccc1-3	0.1 to 1 µM
O=C(O)c1ccc2c(C3CCCCC3)c3n(c2c1)CC=Cc1ncccc1-3	> 1 µM
COC1c2ccccc2-c2c(C3CCCCC3)c3ccc(C(=O)O)cc3n21 (stereo not drawn)	> 1 µM
O=C1Cn2c(c(C3CCCCC3)c3ccc(C(=O)O)cc32)-c2ccccc2N1	0.1 to 1 µM

----------
IC50 by entry:
Target: HCV NS5B RdRp genotype 1b (Hepatitis C virus genotype 1b)
Construct: The protein was expressed with an 18 amino acid C-terminal truncation to enhance the solubility; made in house; host or cells: E. coli BL21 (DE3), pET21a
Experiment: Modified HCV NS5B RdRp enzyme assay (with preincubation)
Format: biochemical
Details: modified method (with preincubation)

compound	IC50
O=C(NS(=O)(=O)C1CC1)c1ccc2c(C3CCCCC3)c3n(c2c1)CCNc1ccccc1-3	20 to 1000 nM
CC(C)(C)OC(=O)N1CC(O)Cn2c(c(C3CCCCC3)c3ccc(C(=O)O)cc32)-c2ccccc21 (stereo not shown)	20 to 1000 nM
O=C(O)c1ccc2c(C3CCCCC3)c3n(c2c1)CCCc1ocnc1-3	> 1000 nM
O=C(O)/C=C/c1ccc(NC(=O)C2(NC(=O)c3ccc4c(C5CCCCC5)c5n(c4c3)CCCc3ocnc3-5)CCCC2)cc1	20 to 1000 nM
COC(=O)/C=C/c1ccc2[nH]c(C3(NC(=O)c4ccc5c(C6CCCCC6)c6n(c5c4)CC(=O)Nc4ccccc4-6)CCCC3)nc2c1	20 to 1000 nM
CN(C)S(=O)(=O)NC(=O)c1ccc2c(C3CCCCC3)c3n(c2c1)C[C@@H](C(=O)N1CCC(N2CCCC2)CC1)Cc1ccccc1-3	20 to 1000 nM
O=C(O)c1ccc2c(C3CCCCC3)c3n(c2c1)CC(C(=O)N1CCOCC1)Cc1ccncc1-3 (stereo not shown)	20 to 1000 nM
COC(=O)/C=C/c1ccc(CN(C)S(=O)(=O)NC(=O)c2ccc3c(C4CCCCC4)c4n(c3c2)CC(=O)Nc2ccccc2-4)cc1	20 to 1000 nM
N#Cc1ccc2c(C3CCCCC3)c3n(c2c1)CCCc1ncccc1-3	> 1000 nM
O=C(O)c1ccc2c(C3CCCCC3)c3n(c2c1)CC(C(=O)N1CCOCC1)=Cc1ccc(Cl)cc1-3	20 to 1000 nM
O=C(O)c1ccc2c(C3CCCCC3)c3n(c2c1)CCN(C(=O)Nc1ccccc1)c1ccccc1-3	20 to 1000 nM
COC(=O)c1ccc2c(C3CCCCC3)c3n(c2c1)CC(C(=O)O)Cc1ccccc1-3 (stereo not shown)	> 1000 nM
O=C(O)c1ccc2c(C3CCCCC3)c3n(c2c1)CC(C(=O)O)Cc1ccccc1-3 (stereo not shown) [drawing 305]	20 to 1000 nM
